Data credit: the NIST ThermoML archive (doi:10.1016/j.jct.2010.09.008)

conditions: 298.15 K; 101.33 kPa; Liquid; Vibrating tube method
// label = fulfilled if mass density is not less than 900 kg/m3, otherwise not fulfilled

query: Is reported mass density greater than or equal to 900 kg/m3 here: `COCCOCCOCCOCCOC`
result: fulfilled

query: Is reported mass density greater than or equal to 900 kg/m3 here: `CCCCCCC`
result: not fulfilled

query: Is reported mass density greater than or equal to 900 kg/m3 here: `COCCOCCOCCOC`
result: fulfilled

query: Is reported mass density greater than or equal to 900 kg/m3 here: `COCCOCCOC`
result: fulfilled

query: Is reported mass density greater than or equal to 900 kg/m3 here: `COCCOC`
result: not fulfilled
